test: soluble on expression in E. coli; label from the status in PepcDB or PDB records
observed-property: soluble on expression in E. coli

entry_sequence=MCQSNQIVSHFLSHRNVTNELAEKISKDHYSYKPAETSMSAEELVKHILTSFHLFANVIKEGNASPFQNKQEETETDLNVLAKTYTEKTVAILEQLTEEQLDREIDLTSAFGRKVTGRALLQLAMEHEIHHKGNLFVYVREMGHTELPFYQQRMLEHHHHHH observed_property="soluble on expression in E. coli" val=soluble
entry_sequence=MAKEINLTGEEVVALAAKYMNETDAAFVKKALDYATAAHFYQVRKSGEPYIVHPIQVAGILADLHLDAVTVACGFLHDVVEDTDITLDNIEFDFGKDVRDIVDGVTKLGKVEYKSHEEQLAENHRKMLMAMSKDIRVILVKLADRLHNMRTLKHLRKDKQERISRETMEIYAPLAHRLGISRIKWELEDLAFRYLNETEFYKISHMMNEKRREREALVDDIVTKIKSYTTEQGLFGDVYGRPKHIYSIYRKMRDKKKRFDQIFDLIAIRCVMETQSDVYAMVGYIHELWRPMPGRFKDYIAAPKANGYQSIHTTVYGPKGPIEIQIRTKEMHQVAEYGVAAHWAYKKGVRGKVNQAEQKVGMNWIKELVELQDASNGDAVDFVDSLEHHHHHH observed_property="soluble on expression in E. coli" val=soluble

====

test: soluble on expression in E. coli; label from the status in PepcDB or PDB records
observed-property: soluble on expression in E. coli

entry_sequence=MDELNSPLGERAQGASLAHVVWSDPQWLERYPLTFENVLTYFSRSPFYDPTCNNELVRMQMHPELQGEMLYYTQREEELLLGMQGVEYVPLCSSDAHELFIIRKQVRRSADEVHVTNLYYILYGQVYEAPAFSTVLLVRLRQSADFLVRSLGLLRQWLSKKEYGEPGATGHGHEDTLLLQLLRKAQQRNRQL val="not soluble"
entry_sequence=MGSDKIHHHHHHMDIKQIRYFIAIVENHFNLSQAAELLYVSQPTLSMMINDFEKRENVKLFKRKRGRIIGLTYLGDNYYKDAQKVLSLYDDMFLKLHDHSKGLKGSINIGIPPLILSVVFSEVMPKLILENPGIQFNVKEIGAYQLKNELLVGNVDVAVLLSPTGIADNLVETYEIQRSELSVCLSPRHRLASKKVIQWEDLTDEQLALFDPSFMVHHLVLEACERHQVRPNIILTSSSWDFMLNSTKINHNVLTICPKPITELYQLKDIKCIPMERPISWRVVLTRLRKKSYSEIEAYIMDDLLQSFFK val="not soluble"

====

experiment: soluble on expression in E. coli; label from the status in PepcDB or PDB records
observed-property: soluble on expression in E. coli

entry_sequence=MGEPVIEAQISAGFDSDSGFRHAFSRLAGQPPSNLRGRELLKVDWLQTPIGVMLAVADLEHHHHHH val="not soluble"
entry_sequence=ELNKNFDAVVDTAIARWRRSGPVVAMTRPDLKHGRGGLRDFELIKALALGHLCNLPQLDAQHQLLLDARTLLHVHARRSRDVLDPEFAVDVAMDLGFVDRYHLGREIADAARAIDDGLTTALATARGILPRRTGFAFRNASRRPLDLDVVDANGTIELSKKPDLNDPALPLRVAAAAATTGLPVAESTWVRLNECPPLPEP val="not soluble"
entry_sequence=DQVGIWGNSPTAHRGLAVAARHAAPLLRVEDAFLRSLFPGRAGEPPLGLLLDRAGVHFDPTTPSDLEQLLTSAPLDDTTLLNRARDAMARIRENHLSKYCATDPDLPLPEPGYVLVIDQTRGDASVTASGGNDALFREMLVFAQEEHPGARVLIKTHPETAAGFRPGYYGERDISVRVSLYDAPLSPWALLDGAVGVYTLSSQLGFEAILAGHKPRVFGQPFYAGWGLTLDEHPVPRRERRLTRAQLFAAAMILYPTW val="not soluble"

====

assay: soluble on expression in E. coli; label from the status in PepcDB or PDB records
observed-property: soluble on expression in E. coli

Worked examples, 5 sequences total:
entry_sequence=AIAAMGRTTQFTLDEVAKHADKDSCWLVIDGKVYAVEKFLNEHPGGEDVLLETAGRDATREFEDVGHSKSAREQLKEFYIGDVREPTAEELAAKRAVQASAAAERRDGDGVRANGLGKERLFAGGAFGAEPLSGGSSTWTLLKRLFVPVCIAVLVYLVREYSKQVQTGG observed_property="soluble on expression in E. coli" val=soluble
entry_sequence=MSAQYDLYETPDIKQTGEKQPLHPRIVPKGTIGQDEFLDRVHKFTGISRSLLAGAMQSFQNELKDLLANGWIVELGEIGYFSVSLQGPPVMHKKDVRAQSIKLKNINYLPTKQFKREVGYDMRLERTESLTRPKGNGRSEAECLALITAHLEKYPCMTRTDYCHMTGHDKKRALKELNAFIEKEILMRYGAGKQVVYAKKMI observed_property="soluble on expression in E. coli" val="not soluble"
entry_sequence=EDPGGITRTKGERVDATVDGLPDGVSPEDAAKFTSVLNKLIKDDPELKKSVEVKTLKAASKTKRTKEVVNWRGGGGFQVAHLSPACFDYDPALDRVMLTAAATGETLIESVAANLGFTLLHPDDDYVFDARRGNALLKVVEGVATPQIVDWLASQIQPGETIVLAATTVMDGVRQHLRKAVKGSRVVALPDDIFRYSEGGNK observed_property="soluble on expression in E. coli" val="not soluble"
entry_sequence=MRSRPTEGNLLVSIGIPFLNPGPYLDLAVRSVFAQTYLNWELILVDDGSTDGSYERAVAIQDPRVRVLRDGQNKGLPARLNEIVRLAKGELVARMDADDAMHPLRLEKQVGFLQANPELDGVTTGAYLIDAEDRPIALLPGRQPSAQEVLARGGFLHPSLLARKSWFEAHPYSLDYPRAEDRELFVRTFKTSRLHVLSEPLYFYRWFGVPRGKTLRIGYRSERKVMWKYGPNLVGWGPSLRLIALSFGKELLTWFLEWTHLEKGFQTRRAFQPLLEMDQREALRTLKVIRETCVPGWD observed_property="soluble on expression in E. coli" val=soluble
entry_sequence=MRYSFVIQWDFETVYTGVNSTTNLAFSVKAMTTNFANLQELQDSLVLRGQNLTTQLFWKPTVKRLVLGNNNDLTTVAKAAVGDNLFTTQANLTKSVLDQTVLKEAESRFEATVLKPFIEARQKALAEHQAHQKVLEEQRQKQLEELKQKQKEAE observed_property="soluble on expression in E. coli" val=soluble

Recorded soluble on expression in E. coli of `SNAMSQEAFENKLYANLEAVIDPELGVDIVNLGLVYDVTADENNNAVITMTMTSIGCPMAGQIVSDVKKVLSTNVPEVNEIEVNVVWNPPWSKERMSRMAKIALGIRD` , please.
soluble

Can you look up the measured soluble on expression in E. coli of `MSETLIIRFNVGGTPMATLKTTFPVDSIFHKWFVSRTKASPFTSDRDGAYFVDRDPFSFGVVLNYFRLRKAGQLWEACLPKDPDRLAMLTQEADFFLLPQLRDQAICMLQLCSNKNDSNYINEMLAKSTSCPQGFDKKEEEDEEDF` for me?
not soluble

Look up soluble on expression in E. coli for this sequence: `MSSNYATPLDDEVFPLSFANYQFTEHVSLGEHYSLNTSEDAKYNNLNGPFVVPRDTGKFDLNTSSASDETVFSLDNPQENNYKHQAMNNVQDCRMAVAAKTTQSCDKLTDLYANAAQQNYRLWLSSF`
not soluble

soluble on expression in E. coli lookup needed for `MGSDKIHHHHHHLRASSSIRVGAERAHLAIGAASKRMADLEASIGVQLFERHARGVALTAAGEALERHTQRILNDMDRMTAEMSDYAAGVVGVVRLWANTSSVTQFLPTDIAAFSVVHPDIRIELEEQDSEQVALAVVDGAADFGIMADRMPTLGLQAMLYRKDHLFLVVPDGHPLTQRESVSFVDALEFDFVSLARNTSLAKRLQAATAFSGGQIKLRIQVRSFDAMCLMVAAGPGIAILPDAAVGPHLRSMDLCRIPLSENWTRRELFICARDLNALPRPASLLVNHLIGATPDAVAVR` , thanks.
not soluble

GET /values?readout=soluble on expression in E. coli&item= `GPGSMLSTIKTRPQGPYCGDYFSIVEGRVDFPVDLDTFDISLTISGDVEECKNEPYVYDEVSGNVELTNAQDPGDCLGSILRRNQLTLMVTYHPDDDKISLDFGIAVVNLSPCP`
not soluble

Which soluble on expression in E. coli value is on record for `RPQNTNSWQKDSIEGIDIMLAMDVSGSMQAMDFKPNRLEAAKDVAISFINNRPNDNIGMVTFAGESFTQCPLTTDHTVLLNMVQDLQ` ?
soluble

====

assay: soluble on expression in E. coli; label from the status in PepcDB or PDB records
observed-property: soluble on expression in E. coli

entry_sequence=MPSPARRSRRRRSSLLNFSFSEVDLEQQRRALEMFEQQMNDQAFAQLIHDHDVQHINNDANQVPAAPNTPPVPVPPPVQQPQASPNASPVSVLRRRRYANPEQERFGDISRRIHNPANQIPAAPNTQPEVPPTVQQPESSSQERASPTSPEITIFSTGLLGLRRRSSARISIRMSATAQTNLPITPIRRRRGRAVSPILEIEFENLSSSSSGTSGDSGNHSSPTNTNDQSFIGDDARTYDQEHVPIDFEGPSTSTGITDRHPRRRNQDGSHGECTMCFEVPVSPLGCNNCLQIIGCEECVDIWYRSSSKPSCPLCRRKWARKPDVSKMSVISVRKQSSLRRSKRRITSK val="not soluble"
entry_sequence=MGLRNENGIVVYPLINGAYRVAASDNYTSNFGLEWNTFQKTQIDKFSGNTVSEERLFAQTNWQKNGLEGETILEVGSGAGRFSQIMLDHTKATLYSVDYSEAVEANYRNNGPHERFKLFQASIYELPFKQASFDRVICLGVLQHTPDFKASVKALVEMVKPGGELVIDFYPIRNVFTKVHGKYLLRPILKRVNHHRLMSLIRNNIDFLISIYTFNRRIGLGVFNRFVPICEIERTLPKGMTPEQLKEWIILDTFDMFSPEYDQPQRLSTVAKWVKEFGMADVDASWVTYHGLEHHHHHH val="not soluble"
entry_sequence=MGSDKIHHHHHHMKEPTIVKKEAFQAIGISITTTNEKEASTEGKIPGLWNRYFHEQIMHHIPNQQTKETFAFYSNYESDETGTYQFTIGMPVSSLEDVPENMTTLTIPAATYAVFTTRKGPVAEVVCEAWEYIWKWSKGNKRAFTIDFELYDEKATDPNNAQLDIYIALA val="not soluble"
